Test system: DU-145 prostate
Assay: NCI tumour cell line growth inhibition, 48 h
QUANTITY MEASURED: TGI (µM)
The answer is to be given in µM; state only the numeric part.

For record `C=CC[Se]C(=O)c1ccccc1OC(C)=O` the listed TGI is 11.6

For record `O=[N+]([O-])c1ccc(Oc2cccnc2)c([N+](=O)[O-])c1` the listed TGI is 7.44

For record `C#CCn1c(=O)c(C)cn(/C(=C/C(=O)OCC)C(=O)OCC)c1=O` the listed TGI is 29.5

====

System: LOX IMVI melanoma
Experiment: NCI tumour cell line growth inhibition, 48 h
QUANTITY MEASURED: TGI

For record `Cn1c(=O)c(Sc2ccccc2F)cc2cnc(NC3CCOCC3)nc21` the listed TGI is > 25 µM

For record CC1=C(C(=O)OCCc2ccc([N+](=O)[O-])cc2)C(c2ccccc2C(F)(F)F)C(C(=O)OC(C)C)=C(C)N1 (stereo not given) the listed TGI is > 100 µM

For record `COc1cc(C2=Nc3c/c(=C\c4c(O)[nH]c5ccc(Cl)cc45)ccc3=N2)cc(OC)c1OC` the listed TGI is 4.3 µM

For record `CC(C)(C)OC(=O)N1C[C@H](CC(=O)OCc2ccccc2)C[C@H]1C(=O)OCC(Cl)(Cl)Cl` the listed TGI is > 50 µM

For record `C=CC1(c2ccc(Cl)c(Cl)c2)OCCO1` the listed TGI is > 100 µM

====

Test system: SK-MEL-28 melanoma
Test: NCI tumour cell line growth inhibition, 48 h
Field: TGI. Provide a value for each of the compounds that follow.

For record `O=c1oc2c(ccc3occc32)c(N2CCCCC2)c1-c1ccccc1` the listed TGI is > 100 µM

For record `O=P(O)(O)OP(=O)(O)O` the listed TGI is > 100 µM

For record NC(=O)c1ncn(C2OC(CO)C(O)C2O)n1 (stereo unspecified) the listed TGI is > 100 µM

For record `COc1ccc2cc(-c3ccc(OC)c(OC)c3)c(=O)oc2c1` the listed TGI is > 100 µM

For record `COc1ccc(S(=O)(=O)Nc2cc(/C=C\c3cc(OC)c(OC)c(OC)c3)cc(OC)c2OC)cc1OC` the listed TGI is 61.3 µM

For record `CCN(CC)/[N+]([O-])=N/OC` the listed TGI is > 100 µM

For record C[C@@]12CCC[C@@](C)(C(=O)O)C1CC[C@]13C=C(CO)[C@](O)(CCC12)C3 (stereo partly specified) the listed TGI is > 100 µM

For record `CC(=O)Oc1ccn2nc(C)c(Cc3c(C)nn4ccc(OC(C)=O)cc34)c2c1` the listed TGI is > 100 µM

For record O=C1OC(C2Cc3cc4c(cc3C2=O)CCC4)c2ccccc21 (stereo unspecified) the listed TGI is > 100 µM

For record `Cn1c(=O)c(Sc2ccccc2F)cc2cnc(NC3CCOCC3)nc21` the listed TGI is > 25 µM

For record `Clc1ccc(NCc2nnc(COc3ccc(OCc4nnc(CNc5ccc(Cl)cc5)o4)c(Cl)c3)o2)cc1` the listed TGI is > 100 µM

====

Test system: A498 renal
Assay: NCI tumour cell line growth inhibition, 48 h; in the data active = GI50 below about 0.43 µM; inactive = the rest
In this exercise, the only acceptable responses are active, inactive

Exercise: Outcome logged for `CCc1ccc(/C(C#N)=C/C=C/c2ccccc2)cc1` in this assay:
Solution: inactive

Exercise: Outcome logged for C[CH2][Sn]1([CH2]C)[O]C2C(O)OC(CO)C(O)C2[O]1 (stereo unspecified) in this assay:
Solution: inactive

Exercise: Outcome logged for `CC(C)[C@@H]1NC(=O)[C@]2(C)CSC(=N2)c2csc(n2)CNC(=O)C[C@@H](/C=C/CCS)OC1=O` in this assay:
Solution: active

Exercise: Outcome logged for `COc1cc2c3c(n(CCCN=[N+]=[N-])c(=O)c2cc1OC)-c1ccc(N)cc1C3=O` in this assay:
Solution: active

Exercise: Outcome logged for `Cc1ccccc1NC(=O)N/C(N)=N/c1nc2ccccc2s1` in this assay:
Solution: active

Exercise: Outcome logged for `Cn1c(=O)c(Sc2ccccc2F)cc2cnc(NC3CCOCC3)nc21` in this assay:
Solution: inactive

Exercise: Outcome logged for `N#Cc1cc(-c2ccccc2)[nH]c1-c1nccc2ccccc12` in this assay:
Solution: inactive

Exercise: Outcome logged for `CN(C)c1cc2c(cc1Sc1nc3c(N)nccc3n1CCNCC(C)(C)C)OCO2` in this assay:
Solution: inactive

Exercise: Outcome logged for `O=C(c1ccc(F)c(F)c1Nc1ccc(I)cc1F)N1CC(O)([C@H]2CCCCN2)C1` in this assay:
Solution: inactive

Exercise: Outcome logged for `Clc1ccc(-c2nc(-c3c[nH]c4ncccc34)cs2)cc1` in this assay:
Solution: inactive

Exercise: Outcome logged for `O=C(/C=C/c1ccccc1O)c1ccccc1` in this assay:
Solution: inactive

Exercise: Outcome logged for `[Ce+3].[Cl-].[O-]/N=C(\c1ccccc1)c1ccccn1.[O-]/N=C(\c1ccccc1)c1ccccn1.[O-]/N=C(\c1ccccc1)c1ccccn1` in this assay:
Solution: inactive

Exercise: Outcome logged for NC(=O)c1ncn(C2OC(CO)C(O)C2O)n1 (stereo unspecified) in this assay:
Solution: inactive

Exercise: Outcome logged for `NC(=O)c1cccc(N)c1` in this assay:
Solution: inactive

Exercise: Outcome logged for `Cc1cc(N2CCOCC2)nc(N(CCNc2ccnc3cc(Cl)ccc23)Cc2ccco2)n1` in this assay:
Solution: inactive

Exercise: Outcome logged for `C=C1CCCC(C)(C)[C@@H]1CC/C(C)=C/Cn1c2cccc(=O)c-2nc2ccccc21` in this assay:
Solution: inactive

Exercise: Outcome logged for CCCCC(SC(=S)N(CC)CC)C(=O)Nc1nc(CC(=O)OCC)cs1 (stereo unspecified) in this assay:
Solution: inactive

Exercise: Outcome logged for `COc1ccc(Nc2nc(NCc3ccccc3)c3ccccc3n2)cc1` in this assay:
Solution: inactive

Exercise: Outcome logged for `Oc1c(Cl)cc(C(c2cc(Cl)c(O)c(Cl)c2)C(c2cc(Cl)c(O)c(Cl)c2)c2cc(Cl)c(O)c(Cl)c2)cc1Cl` in this assay:
Solution: inactive

Exercise: Outcome logged for `C[C@H](Nc1ccc(C#N)n(C)c1=O)c1cc2cc(Cl)ccc2[nH]c1=O` in this assay:
Solution: inactive

Exercise: Outcome logged for `Nc1cccc(-c2nc3sccn3c2-c2ccnc(NCCCNS(=O)(=O)c3ccc(C(F)(F)F)cc3)n2)c1` in this assay:
Solution: inactive
